FYI, the data here is from patent US20090215778A1.

# tested_system: HIV Env six-helix bundle (6HB) structure (Human immunodeficiency virus type 1 group M subtype B, UniProt P04579)
# Construct: H9 cells chronically infected with HIV-1 (H9/HIV-1RF); endogenous in cells; host or cells: H9 cells chronically infected with HIV-1 strain RF (Env is made from the virus in the infected cells, not by transfection)
# Sequence (P04579 32-519): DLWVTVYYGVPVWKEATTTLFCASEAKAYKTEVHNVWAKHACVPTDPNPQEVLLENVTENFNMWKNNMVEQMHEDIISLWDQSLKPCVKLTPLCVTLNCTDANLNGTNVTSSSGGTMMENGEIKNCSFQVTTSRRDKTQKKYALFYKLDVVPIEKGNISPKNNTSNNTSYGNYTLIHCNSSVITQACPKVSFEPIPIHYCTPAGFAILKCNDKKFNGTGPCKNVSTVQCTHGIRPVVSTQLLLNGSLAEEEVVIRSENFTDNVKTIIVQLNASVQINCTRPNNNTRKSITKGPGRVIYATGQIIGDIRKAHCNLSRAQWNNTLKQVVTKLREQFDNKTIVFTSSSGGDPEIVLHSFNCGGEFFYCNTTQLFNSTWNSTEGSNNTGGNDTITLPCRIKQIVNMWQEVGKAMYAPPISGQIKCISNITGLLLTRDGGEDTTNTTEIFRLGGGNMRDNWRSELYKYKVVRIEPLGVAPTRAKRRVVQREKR
# Sequence (P04579 520-865): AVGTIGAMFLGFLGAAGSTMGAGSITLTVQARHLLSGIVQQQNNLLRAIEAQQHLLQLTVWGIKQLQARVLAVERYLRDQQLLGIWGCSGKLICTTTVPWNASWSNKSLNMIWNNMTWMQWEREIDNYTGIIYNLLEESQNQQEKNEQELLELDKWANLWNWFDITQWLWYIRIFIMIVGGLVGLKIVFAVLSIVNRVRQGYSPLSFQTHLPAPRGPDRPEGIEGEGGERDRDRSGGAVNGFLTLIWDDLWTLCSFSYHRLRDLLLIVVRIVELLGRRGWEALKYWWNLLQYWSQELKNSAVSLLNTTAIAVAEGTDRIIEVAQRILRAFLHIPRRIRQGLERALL
# measurement_protocol: Six-helix bundle (6HB) assay
# Assay type: cell-based, HIV-1 (strain RF)
endpoint: IC50

compound: COc1ccc(-c2nc3c(C(=O)N4CCN(C(CO)c5cc(OC)ccc5OC)C[C@H]4C)cnn3c(C(F)(F)F)c2C)cc1 (stereo partly shown)
obs_value: 1.1 to 10 µM
//
compound: COc1ccc(-c2nc3c(C(=O)N4CCN([C@H](CO)c5ccccc5F)C[C@H]4C)cnn3c(C(F)(F)F)c2C)cc1
obs_value: < 1 µM
//
compound: COc1ccc(-c2nc3c(C(=O)N4CCN(C(CO)c5ccccc5NC(=O)C(C)C)C[C@H]4C)cnn3c(C(F)(F)F)c2C)cc1 (stereo partly shown)
obs_value: > 10.1 µM

Here is the next item to consider.
What IC50 value was documented for this compound, COc1ccc(-c2nc3c(C(=O)N4CCN(C(CO)c5cccc(C(N)=O)c5)C[C@H]4C)cnn3c(C(F)(F)F)c2C)cc1 (stereo partly shown) ?
< 1 µM
